Here, each record is paired with measured pIC50 data.
Biological target: human ALK5 (Homo sapiens (Human))
Sequence (P36897 80-503 limits assumed): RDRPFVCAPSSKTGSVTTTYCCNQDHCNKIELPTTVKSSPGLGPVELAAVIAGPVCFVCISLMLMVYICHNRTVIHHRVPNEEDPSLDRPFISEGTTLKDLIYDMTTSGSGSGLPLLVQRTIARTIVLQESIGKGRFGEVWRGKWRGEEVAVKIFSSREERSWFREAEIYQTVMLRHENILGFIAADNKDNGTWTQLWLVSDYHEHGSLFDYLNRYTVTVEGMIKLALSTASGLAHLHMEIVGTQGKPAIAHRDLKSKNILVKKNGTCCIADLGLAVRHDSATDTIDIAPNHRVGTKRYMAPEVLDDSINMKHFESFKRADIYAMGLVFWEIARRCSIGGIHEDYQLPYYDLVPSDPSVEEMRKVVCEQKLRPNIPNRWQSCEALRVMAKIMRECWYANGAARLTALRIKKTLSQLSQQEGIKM
Assay: ADP-GLO Kinases assay (ALK5 enzymatic activity)
Conditions: purified recombinant human ALK5 2.6 nM, TGFβ1 peptide substrate, 25° C., 150 min incubation, ADP-Glo detection
Procedure: The enzymatic activity of compounds of the present invention was monitored measuring the formation of ADP using the ADP-GLO Kinases assay. Following the incubation of the purified enzyme, a substrate and ATP, the produced ADP was converted into ATP, which in turn was converted into light by Ultra-Glo Luciferase. […] After an incubation of 150 min, the reaction was stopped, and ADP production detected with ADP-Glo kit according to manufacturer's indications. […]
pIC50: −log10 of the molar value.

Examples with their reported pIC50 follow.
> print(dat)
                            chemical.string  outcome.measure    data.value
1    Cc1cccc(-c2nc3n(c2-c2ccc(O)cc2)CCN3)n1            pIC50  8.30 to 9.00
2  Cc1cccc(-c2nc3n(c2-c2ccc4nc(N)sc4c2)CCN3)n1            pIC50  8.30 to 9.00
3   Cn1ccc(-c2nc3n(c2-c2cc4cnccc4s2)CCN3)n1            pIC50  8.30 to 9.00
4   Cn1ccc(-c2nc3n(c2-c2ccc4ncnn4c2)CCN3)n1            pIC50  8.00 to 8.30

As a next step, examine the molecule that follows.
Request: # query: pIC50 | item "COc1cccc(-c2nc3n(c2-c2ccc4ncsc4c2)CCN3)n1" | system: human ALK5 (Homo sapiens (Human))
Result: > 9.00

* * *

target: human ALK5 (Homo sapiens (Human)); assay: ADP-GLO Kinases assay (ALK5 enzymatic activity); details: purified recombinant human ALK5 2.6 nM, TGFβ1 peptide substrate, 25° C., 150 min incubation, ADP-Glo detection
pIC50: −log10 of the molar value.
outcome-measure: pIC50

Examples with their reported pIC50 follow.
> print(dat)
                                   molecule    data.value
1  Cc1cccc(-c2nc3n(c2-c2ccc4snnc4c2)CCN3)n1  8.30 to 9.00
2  CCOC(=O)CC1Cn2c(nc(-c3cccc(C)n3)c2-c2cc3cnccc3s2)N1 (centres unmarked)  8.30 to 9.00
3  Cc1cccc(-c2nc3n(c2-c2cccc4ncsc24)CCN3)n1  8.00 to 8.30
4  Cc1cccc(-c2nc3n(c2-c2cc4cnccc4s2)CC(C(=O)N(C)C)N3)n1 (centres unmarked)  8.30 to 9.00

As a next step, examine the molecule that follows.
Request: Requested field: pIC50. Item: CCOC(=O)C1Cn2c(nc(-c3cccc(C)n3)c2-c2ccc3ncnn3c2)N1 (centres unmarked)
Result: 8.30 to 9.00

* * *

target: UniProtKB P36897; assay: ADP-GLO Kinases assay (ALK5 enzymatic activity); conditions: purified recombinant human ALK5 2.6 nM, TGFβ1 peptide substrate, 25° C., 150 min incubation, ADP-Glo detection
Here, each record is paired with measured IC50 data.

> print(dat)
                                   compound  data.value
1  CCN1CCn2c1nc(-c1cccc(C)n1)c2-c1cc2cnccc2s1   1 to 5 nM
2  Cc1cccc(-c2nc3n(c2-c2ccnc4[nH]ccc24)CCN3)n1   1 to 5 nM
3  CCN1CCn2c1nc(-c1cccc(C)n1)c2-c1ccc2ncnn2c1      < 1 nM
4    Cc1cccc(-c2nc3n(c2-c2ccnc(N)c2)CCN3)n1  5 to 10 nM

Request: Requested field: IC50. Item: "Cc1cccc(-c2nc3n(c2-c2ccc(F)c(N)c2)CCN3)n1"
Result: 1 to 5 nM

Request: Requested field: IC50. Item: "CCN1CCn2c1nc(-c1cccc(C)n1)c2-c1ccc2ncsc2c1"
Result: < 1 nM
